Molecular target: human F508del-CFTR (Homo sapiens, UniProt P13569, DEL508-508)
Sequence (P13569 with tags, fused parts or gaps DEL508-508): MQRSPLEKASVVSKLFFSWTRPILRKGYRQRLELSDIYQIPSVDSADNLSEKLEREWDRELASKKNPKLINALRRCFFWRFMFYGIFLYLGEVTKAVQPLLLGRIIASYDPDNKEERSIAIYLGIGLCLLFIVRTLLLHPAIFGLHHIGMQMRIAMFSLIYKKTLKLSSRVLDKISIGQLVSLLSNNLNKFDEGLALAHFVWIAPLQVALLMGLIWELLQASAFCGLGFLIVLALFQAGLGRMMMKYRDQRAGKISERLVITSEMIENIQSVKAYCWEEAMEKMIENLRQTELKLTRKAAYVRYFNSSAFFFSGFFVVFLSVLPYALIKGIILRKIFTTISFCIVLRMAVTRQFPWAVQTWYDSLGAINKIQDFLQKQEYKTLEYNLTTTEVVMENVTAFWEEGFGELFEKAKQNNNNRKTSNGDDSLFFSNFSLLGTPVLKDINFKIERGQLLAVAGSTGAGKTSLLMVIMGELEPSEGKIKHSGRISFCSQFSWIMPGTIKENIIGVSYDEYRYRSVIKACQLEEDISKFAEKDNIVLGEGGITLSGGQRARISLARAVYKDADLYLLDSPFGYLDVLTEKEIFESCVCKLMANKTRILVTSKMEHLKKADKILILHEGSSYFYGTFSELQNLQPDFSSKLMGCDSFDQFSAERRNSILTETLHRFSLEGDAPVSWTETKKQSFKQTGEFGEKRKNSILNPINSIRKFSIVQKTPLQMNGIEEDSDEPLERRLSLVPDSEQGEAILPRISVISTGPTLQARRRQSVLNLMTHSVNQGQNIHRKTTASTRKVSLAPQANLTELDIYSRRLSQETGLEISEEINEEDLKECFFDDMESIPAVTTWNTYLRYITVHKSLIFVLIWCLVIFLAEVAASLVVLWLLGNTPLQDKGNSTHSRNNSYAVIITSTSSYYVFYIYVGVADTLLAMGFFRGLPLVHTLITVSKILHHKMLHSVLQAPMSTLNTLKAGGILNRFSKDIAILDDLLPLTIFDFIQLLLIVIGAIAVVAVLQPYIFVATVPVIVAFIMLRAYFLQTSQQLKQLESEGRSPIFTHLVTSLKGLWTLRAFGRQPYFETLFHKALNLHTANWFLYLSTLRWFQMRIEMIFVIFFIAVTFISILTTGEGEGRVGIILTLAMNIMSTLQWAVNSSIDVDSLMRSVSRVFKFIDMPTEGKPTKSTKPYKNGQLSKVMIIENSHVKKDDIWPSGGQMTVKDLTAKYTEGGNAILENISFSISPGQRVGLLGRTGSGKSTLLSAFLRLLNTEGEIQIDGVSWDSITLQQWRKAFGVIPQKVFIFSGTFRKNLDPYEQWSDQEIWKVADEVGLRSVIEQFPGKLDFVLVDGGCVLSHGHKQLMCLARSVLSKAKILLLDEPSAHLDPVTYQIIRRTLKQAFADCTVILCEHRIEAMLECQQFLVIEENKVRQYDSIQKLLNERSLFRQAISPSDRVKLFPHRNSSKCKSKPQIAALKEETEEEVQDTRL
Assay: F508del-CFTR cell surface expression (corrector activity), DiscoveRx ß-galactosidase complementation chemiluminescence assay in recombinant U2OS cell line
Conditions: U2OS, in relation to Emax of corrector lumacaftor (=100%); arithmetic mean values
Tick Y if Emax is 200% or greater. Tick N if Emax is less than 200%.

{"chem smiles": "COc1cccc(CCNC(=O)[C@@H]2CC(=O)N(C)[C@@H](CC(C)C)C(=O)N(C)C3(CC3)C(=O)N[C@H](Cc3ccccc3)COc3nc4ccccn4c3C(=O)N2)c1", "group": "N"}
{"chem smiles": "COc1cccc(CCNC(=O)[C@@H]2CC(=O)N(C)[C@@H](CC(C)C)C(=O)N3CCN(C)C[C@@H]3C(=O)N[C@H](Cc3ccccc3)COc3cnc4ccccc4c3C(=O)N2)c1", "group": "Y"}

Could you please find out whether Cc1cc2ccc3c(c2o1)C(=O)N[C@H](C(=O)NCCc1nc(C2CC2)no1)CC(=O)N(C)[C@@H](CC(C)C)C(=O)N(C)CC(=O)N[C@H](Cc1ccccc1)CO3 has Emax that meets 200% or exceeds it? Y

Is the recorded value of Emax equal to or greater than 200% for this compound? COc1cccc(CCNC(=O)[C@@H]2CC(=O)N(C)[C@@H](CC(C)C)C(=O)N3CCCC[C@@H]3C(=O)N[C@H](Cc3ccccc3)COc3nc4ccccn4c3C(=O)N2)c1 N

Threshold query (Emax >= 200%) on Cc1cc(CCNC(=O)[C@@H]2CC(=O)N(C)[C@@H](CC(C)C)C(=O)N(C)C3(CC3)C(=O)N[C@H](Cc3ccccc3)COc3ccc4ccccc4c3C(=O)N2)on1 Y

# bool: Emax of COc1nccc2c1C(=O)N[C@H](C(=O)NCCc1noc(C3CC3)n1)CC(=O)N(C)[C@@H](CC(C)C)C(=O)N(C)[C@H](c1ccccc1)C(=O)N[C@H](Cc1ccccc1)CO2 >= 200% Y

Hi, just wondering whether COc1cccc(CCNC(=O)[C@@H]2CC(=O)N(C)[C@@H](CC(C)C)C(=O)N3CCCC[C@H]3C(=O)N[C@H](Cc3ccccc3)COc3ccc4ccccc4c3C(=O)N2)c1 shows Emax of 200% or higher. N

* * *

Molecular target: human F508del-CFTR (Homo sapiens, UniProt P13569, DEL508-508)
Assay: F508del-CFTR cell surface expression (corrector activity), DiscoveRx ß-galactosidase complementation chemiluminescence assay in recombinant U2OS cell line
Conditions: U2OS, in relation to Emax of corrector lumacaftor (=100%); arithmetic mean values
result type: Emax (%)
Numbers only, in %.

{"chem smiles": "COc1cccc(CCNC(=O)[C@@H]2CC(=O)N(C)[C@@H](CC(C)C)C(=O)N3CCOC[C@@H]3C(=O)N[C@H](Cc3ccccc3)COc3cnc4ccccc4c3C(=O)N2)c1", "system under test": "human F508del-CFTR (Homo sapiens, UniProt P13569, DEL508-508)", "result type": "Emax", "readout number": 291}
{"chem smiles": "COc1cccc(CCNC(=O)[C@@H]2CC(=O)N(C)[C@@H](CC(C)C)C(=O)N(C)C3(CC3)C(=O)N[C@H](Cc3ccccc3)COc3cnc(OC)cc3C(=O)N2)c1", "system under test": "human F508del-CFTR (Homo sapiens, UniProt P13569, DEL508-508)", "result type": "Emax", "readout number": 214}
{"chem smiles": "Cc1noc2c3c(ccc12)OC[C@@H](Cc1ccccc1)NC(=O)[C@@H]1CCCCN1C(=O)[C@H](CC(C)C)N(C)C(=O)C[C@@H](C(=O)NCCc1c(F)cccc1F)NC3=O", "system under test": "human F508del-CFTR (Homo sapiens, UniProt P13569, DEL508-508)", "result type": "Emax", "readout number": 112}
{"chem smiles": "Cc1nc2ccc3c(c2o1)C(=O)N[C@H](C(=O)NCCc1cccc(C(C)(F)F)c1)CC(=O)N(C)[C@@H](CC(C)C)C(=O)N(CCC1CCCCC1)CC(=O)N[C@H](Cc1ccccc1)CO3", "system under test": "human F508del-CFTR (Homo sapiens, UniProt P13569, DEL508-508)", "result type": "Emax", "readout number": 193}

Batch of 6 compounds: report Emax for each.
1. CC(C)C[C@H]1C(=O)N2CCCC[C@@H]2C(=O)N[C@H](Cc2ccccc2)COc2ccc3ncc(F)cc3c2C(=O)N[C@H](C(=O)NCCn2ncc(C3CC3)n2)CC(=O)N1C
2. COc1nccc2c1C(=O)N[C@H](C(=O)NCCc1noc(C3CC3)n1)CC(=O)N(C)[C@@H](CC(C)C)C(=O)N(C)[C@@H](CC1CCC(F)(F)CC1)C(=O)N[C@H](Cc1ccccc1)CO2
3. Cc1nc2ccc3c(c2o1)C(=O)N[C@H](C(=O)NCCc1ccc2c(c1)OCCO2)CC(=O)N(C)[C@@H](CC(C)C)C(=O)N1CCN(C2CC2)C[C@@H]1C(=O)N[C@H](Cc1ccccc1)CO3
4. CC(C)C[C@H]1C(=O)N2CCCC[C@@H]2C(=O)N[C@H](Cc2ccccc2)COc2nc3ccccn3c2C(=O)N[C@H](C(=O)NCCc2c(F)cccc2F)CC(=O)N1C
5. CC(C)C[C@H]1C(=O)N2CCCC[C@@H]2C(=O)N[C@H](Cc2ccccc2)COc2cccc(F)c2C(=O)N[C@H](C(=O)NCCc2ccc(-n3nccn3)cc2)CC(=O)N1C
6. Cc1cc(CCNC(=O)[C@@H]2CC(=O)N(C)[C@@H](CC(C)C)C(=O)N(C)C3(CCCC3)C(=O)N[C@H](Cc3ccccc3)COc3cnc4ccccc4c3C(=O)N2)on1

302
253
320
117
127
195

* * *

Target: human F508del-CFTR (Homo sapiens, UniProt P13569, DEL508-508)
Assay: F508del-CFTR cell surface expression (corrector activity), DiscoveRx ß-galactosidase complementation chemiluminescence assay in recombinant U2OS cell line
Conditions: EC50, F508del-CFTR cell surface expression, U2OS cell line, 16h compound incubation; geomean values
result type: pEC50
Answers are plain numbers, as −log10 of the molar value.

{"compound": "COc1cc2c(cc1OC)C(=O)N[C@H](C(=O)NCCc1ccc3c(c1)OCCN3C)CC(=O)N(C)[C@@H](CC(C)C)C(=O)N(C)CC(=O)N[C@H](Cc1ccccc1)CO2 [Example 8]", "system under test": "human F508del-CFTR (Homo sapiens, UniProt P13569, DEL508-508)", "pEC50": 6.05}

Items follow; give pEC50 for each.
1. CC(C)C[C@H]1C(=O)N2CCOC[C@@H]2C(=O)N[C@H](Cc2ccccc2)COc2cnc3ccccc3c2C(=O)N[C@H](C(=O)NCCc2csc(C(C)C)n2)CC(=O)N1C [Example 46]
2. COc1cc2c(cc1OC)C(=O)N[C@H](C(=O)NCCc1ccc(N(C)C)cc1)CC(=O)N(C)[C@@H](CC(C)C)C(=O)N(C)CC(=O)N[C@H](Cc1ccccc1)CO2 [Example 197]

1: 6.17; 2: 6.24

* * *

Consider the following molecules; for each one, report its Emax.
Target: human F508del-CFTR (Homo sapiens, UniProt P13569, DEL508-508)
Assay: F508del-CFTR cell surface expression (corrector activity), DiscoveRx ß-galactosidase complementation chemiluminescence assay in recombinant U2OS cell line;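 note: U2OS cells co-expressing ProLink-tagged F508del-CFTR and a membrane-anchored enzyme acceptor, where more surface CFTR restores β-galactosidase activity measured by chemiluminescence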
Conditions: U2OS, in relation to the Emax of the corrector lumacaftor (=100%); U2OS cells, 16h compound incubation; arithmetic mean
Answers are plain numbers, in %.

Sample records with Emax:
{"molecule": "CC(C)C[C@H]1C(=O)N(C)[C@H](Cc2nc(-c3ccc(F)cn3)no2)C(=O)N[C@H](Cc2ccccc2)COc2cnc3ccc(F)cc3c2C(=O)N[C@H](C(=O)NCCc2nc3ncccn3n2)CC(=O)N1C [Example 844]", "unit spec": "%", "readout number": 356}
{"molecule": "COc1nccc2c1C(=O)N[C@H](C(=O)NCCc1noc(C3CC3)n1)CC(=O)N(C)[C@@H](CC(C)C)C(=O)N(C)[C@H](CCc1nc(C3CCCC3)no1)C(=O)N[C@H](Cc1ccccc1)CO2 [Example 883]", "unit spec": "%", "readout number": 344}
{"molecule": "COc1nccc2c1C(=O)N[C@H](C(=O)NCCc1cc(C)no1)CC(=O)N(C)[C@@H](CC(C)C)C(=O)N(C)[C@H](CCOC1CCCCC1)C(=O)N[C@H](Cc1ccccc1)CO2 [Example 858]", "unit spec": "%", "readout number": 308}
{"molecule": "CC(C)C[C@H]1C(=O)N(C)[C@H](Cc2nc(-c3ccc(F)cn3)no2)C(=O)N[C@H](Cc2ccccc2)COc2cnc3ccc(F)cc3c2C(=O)N[C@H](C(=O)NC[C@@H](O)c2ccccc2)CC(=O)N1C [Example 842]", "unit spec": "%", "readout number": 305}
{"molecule": "Cc1cc2c3c(ccc2cn1)OC[C@@H](Cc1ccccc1)NC(=O)[C@@H](CC(F)(F)F)N(C)C(=O)[C@H](CC(C)C)N(C)C(=O)C[C@@H](C(=O)NCCc1cc(C2CC2)on1)NC3=O [Example 958]", "unit spec": "%", "readout number": 439}
{"molecule": "CC(C)C[C@H]1C(=O)N(C)[C@H](Cc2nc(-c3ccc(F)cn3)no2)C(=O)N[C@H](Cc2ccccc2)COc2ccc3ncc(F)cc3c2C(=O)N[C@H](C(=O)NCCc2nc(C3CC3)no2)CC(=O)N1C [Example 808]", "unit spec": "%", "readout number": 399}
{"molecule": "CC(C)C[C@H]1C(=O)N(C)[C@H](Cc2nc(-c3ccc(F)cn3)no2)C(=O)N[C@H](Cc2ccccc2)COc2ccc3ncc(F)cc3c2C(=O)N[C@H](C(=O)NCCn2nnc(C3CC3)n2)CC(=O)N1C [Example 804]", "unit spec": "%", "readout number": 360}

Moving on to another molecule below.
COc1nccc2c1C(=O)N[C@H](C(=O)NCCc1noc(C3CC3)n1)CC(=O)N(C)[C@@H](CC(C)C)C(=O)N(C)[C@H](CCc1nc(C(C)(C)C)no1)C(=O)N[C@H](Cc1ccccc1)CO2 [Example 881] on human F508del-CFTR (Homo sapiens, UniProt P13569, DEL508-508) gives Emax = 337
